pIC50: −log10 of the molar value.
// UniProtKB P51452 pIC50 records
Sequence (P51452 whole entry): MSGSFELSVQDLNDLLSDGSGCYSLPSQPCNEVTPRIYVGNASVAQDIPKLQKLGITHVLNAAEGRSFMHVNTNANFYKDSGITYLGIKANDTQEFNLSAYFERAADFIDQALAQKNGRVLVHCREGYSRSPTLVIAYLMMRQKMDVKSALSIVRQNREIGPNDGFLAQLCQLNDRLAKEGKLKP
assay.endpoint: pIC50

Solved entries (count: 5):
CCCCCCCCCCCCCCCC(NCc1cccc(N(C)C)c1)=C1C(=O)OC(CO)C1=O (mixture of isomers): 5.29
CCCCCCCCCCCCCCCC(NCc1ccccc1O)=C1C(=O)OC(CO)C1=O (mixture of isomers): 4.60
CCCCCCCCCCCCCCCC(NCc1ccccc1Cl)=C1C(=O)OC(CO)C1=O (mixture of isomers): 4.99
CCCCCCCCCCCCCCCC(NCc1ccc(OC)cc1)=C1C(=O)OC(CO)C1=O (mixture of isomers): 5.17
CCCCCCCCCCCCCCC/C(NCc1ccccc1)=C1/C(=O)OC(CO)C1=O (centres undefined): 4.94

[P] CCCCCCCCCCCCCCCC(NCc1ccc(O)cc1)=C1C(=O)OC(CO)C1=O (mixture of isomers)
[Q] CCCCCCCCCCCCCCCC(NCc1ccc(C)cc1)=C1C(=O)OC(CO)C1=O (mixture of isomers)
[R] CCCCCCCCCCCCCCCC(NCc1cccc(Cl)c1)=C1C(=O)OC(CO)C1=O (mixture of isomers)
[S] CCCCCCCCCCCCCCCC(NCc1cccc(OC)c1)=C1C(=O)OC(CO)C1=O (mixture of isomers)
In this exercise, place the 4 compounds in ascending sequence of their recorded pIC50. In your reply, arrange the labels in the requested order.
P, S, Q, R
(P: 5.00, S: 5.26, Q: 5.57, R: 5.84)

* * *

molecular target: UniProt P30307
Sequence (P30307 whole entry): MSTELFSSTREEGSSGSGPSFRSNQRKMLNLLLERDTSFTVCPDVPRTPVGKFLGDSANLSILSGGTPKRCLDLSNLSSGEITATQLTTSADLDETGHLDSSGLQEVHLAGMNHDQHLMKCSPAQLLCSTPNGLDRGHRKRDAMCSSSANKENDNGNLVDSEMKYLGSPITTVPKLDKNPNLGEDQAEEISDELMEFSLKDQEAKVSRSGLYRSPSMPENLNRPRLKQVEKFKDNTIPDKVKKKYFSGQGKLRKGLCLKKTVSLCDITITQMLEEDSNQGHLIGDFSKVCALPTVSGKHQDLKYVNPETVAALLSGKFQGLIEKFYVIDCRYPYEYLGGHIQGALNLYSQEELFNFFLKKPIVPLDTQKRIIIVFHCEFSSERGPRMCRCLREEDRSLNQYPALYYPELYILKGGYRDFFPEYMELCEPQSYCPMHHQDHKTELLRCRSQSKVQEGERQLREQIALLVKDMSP
pIC50: −log10 of the molar value.
assay.endpoint: pIC50

CCCCCCCCCCCCCCCC(NCc1ccccc1Cl)=C1C(=O)OC(CO)C1=O (mixture of isomers): < 4.00

Could you tell me which pIC50 is on file for CCCCCCCCCCCCCCCC(NCc1cccc(C)c1)=C1C(=O)OC(CO)C1=O (mixture of isomers) ?
< 4.00

Could you tell me which pIC50 is on file for CCCCCCCCCCCCCCCC(NCc1ccc(O)cc1)=C1C(=O)OC(CO)C1=O (mixture of isomers) ?
4.36

Record request: pIC50 value, item CCCCCCCCCCCCCCCC(NCc1cccc(OC)c1)=C1C(=O)OC(CO)C1=O (mixture of isomers)
< 4.00

I'd like to know its pIC50. The compound in question is CCCCCCCCCCCCCCC/C(NCc1ccccc1)=C1/C(=O)OC(CO)C1=O (centres undefined)
< 4.00

For CCCCCCCCCCCCCCCC(NCc1ccc(C)cc1)=C1C(=O)OC(CO)C1=O (mixture of isomers) , what is its reported pIC50?
4.25

Name the reported pIC50 value associated with the compound CCCCCCCCCCCCCCCC(NCc1ccc(Cl)cc1)=C1C(=O)OC(CO)C1=O (mixture of isomers)
< 4.00

May I ask what pIC50 has been recorded for CCCCCCCCCCCCCCCC(NCc1ccccc1O)=C1C(=O)OC(CO)C1=O (mixture of isomers) ?
< 4.00

What value of pIC50 has been recorded for this entry: CCCCCCCCCCCCCCCC(NCc1cccc(F)c1)=C1C(=O)OC(CO)C1=O (mixture of isomers)
4.11

* * *

pIC50: −log10 of the molar value.
This document collects pIC50 values reported for Tyrosine-protein phosphatase non-receptor type 1 (Homo sapiens, UniProt P18031).

Reference set, count: 9
CCCCCCCCCCCCCCCC(NCc1ccc(OC)cc1)=C1C(=O)OC(CO)C1=O (mixture of isomers): < 4.00
CCCCCCCCCCCCCCCC(NCc1ccccc1N(C)C)=C1C(=O)OC(CO)C1=O (mixture of isomers): < 4.00
CCCCCCCCCCCCCCCC(NCc1ccccc1OC)=C1C(=O)OC(CO)C1=O (mixture of isomers): < 4.00
CCCCCCCCCCCCCCCC(NCc1cccc(F)c1)=C1C(=O)OC(CO)C1=O (mixture of isomers): 4.08
CCCCCCCCCCCCCCC/C(NCc1ccccc1)=C1/C(=O)OC(CO)C1=O (stereo not given): < 4.00
CCCCCCCCCCCCCCCC(NCc1ccc(C)cc1)=C1C(=O)OC(CO)C1=O (mixture of isomers): < 4.00
CCCCCCCCCCCCCCCC(NCc1cccc(OC)c1)=C1C(=O)OC(CO)C1=O (mixture of isomers): < 4.00
CCCCCCCCCCCCCCCC(NCc1ccc(O)cc1)=C1C(=O)OC(CO)C1=O (mixture of isomers): 4.17
CCCCCCCCCCCCCCCC(NCc1cccc(O)c1)=C1C(=O)OC(CO)C1=O (mixture of isomers): < 4.00

Attention now shifts to the item below.
What pIC50 appears in the records for this molecule with Tyrosine-protein phosphatase non-receptor type 1 (Homo sapiens, UniProt P18031)? CCCCCCCCCCCCCCCC(NCc1ccccc1C)=C1C(=O)OC(CO)C1=O (mixture of isomers)
Sequence (P18031 whole entry): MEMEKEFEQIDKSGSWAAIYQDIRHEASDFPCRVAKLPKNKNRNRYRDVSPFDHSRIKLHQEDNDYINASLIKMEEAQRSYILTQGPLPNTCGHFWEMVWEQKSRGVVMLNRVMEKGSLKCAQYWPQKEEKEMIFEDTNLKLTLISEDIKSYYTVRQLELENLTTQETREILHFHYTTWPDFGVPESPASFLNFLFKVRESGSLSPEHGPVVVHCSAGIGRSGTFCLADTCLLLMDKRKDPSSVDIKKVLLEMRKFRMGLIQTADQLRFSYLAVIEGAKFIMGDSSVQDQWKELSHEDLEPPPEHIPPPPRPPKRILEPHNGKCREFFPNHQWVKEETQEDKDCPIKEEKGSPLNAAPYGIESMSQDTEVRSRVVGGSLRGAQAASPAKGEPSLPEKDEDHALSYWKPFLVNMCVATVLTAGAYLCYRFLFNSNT
< 4.00

* * *

biological target: M-phase inducer phosphatase 1 (Homo sapiens); assay: Inhibition of CDC25A
assay.endpoint: IC50 (µM)

CCCCCCCCCCCCCCC/C(NCc1ccccc1)=C1/C(=O)OC(CO)C1=O (stereo unspecified): 16.6
CCCCCCCCCCCCCCCC(NCc1ccc(Cl)cc1)=C1C(=O)OC(CO)C1=O (mixture of isomers): 6.25
CCCCCCCCCCCCCCCC(NCc1ccccc1N(C)C)=C1C(=O)OC(CO)C1=O (mixture of isomers): 8.5
CCCCCCCCCCCCCCCC(NCc1cccc(F)c1)=C1C(=O)OC(CO)C1=O (mixture of isomers): 6.22
CCCCCCCCCCCCCCCC(NCc1ccccc1O)=C1C(=O)OC(CO)C1=O (mixture of isomers): 13.5
CCCCCCCCCCCCCCCC(NCc1ccc(O)cc1)=C1C(=O)OC(CO)C1=O (mixture of isomers): 6.86
CCCCCCCCCCCCCCCC(NCc1ccccc1F)=C1C(=O)OC(CO)C1=O (mixture of isomers): 12.6
CCCCCCCCCCCCCCCC(NCc1ccccc1C)=C1C(=O)OC(CO)C1=O (mixture of isomers): 12.7

[P] CCCCCCCCCCCCCCCC(NCc1ccc(F)cc1)=C1C(=O)OC(CO)C1=O (mixture of isomers)
[Q] CCCCCCCCCCCCCCCC(NCc1ccc(C)cc1)=C1C(=O)OC(CO)C1=O (mixture of isomers)
Which of these two has the smaller recorded IC50: P or Q ? Field: selected label. Fill in the label of the entry you choose.
Q

[A] CCCCCCCCCCCCCCCC(NCc1ccccc1OC)=C1C(=O)OC(CO)C1=O (mixture of isomers)
[B] CCCCCCCCCCCCCCCC(NCc1ccc(OC)cc1)=C1C(=O)OC(CO)C1=O (mixture of isomers)
Of the two listed items, which has the higher IC50? First: A Second: B // output: label of the selected item
A
(A: 19 µM, B: 11.7 µM)

* * *

target: UniProtKB P30305; assay: Inhibition of CDC25B
Sequence (P30305 whole entry): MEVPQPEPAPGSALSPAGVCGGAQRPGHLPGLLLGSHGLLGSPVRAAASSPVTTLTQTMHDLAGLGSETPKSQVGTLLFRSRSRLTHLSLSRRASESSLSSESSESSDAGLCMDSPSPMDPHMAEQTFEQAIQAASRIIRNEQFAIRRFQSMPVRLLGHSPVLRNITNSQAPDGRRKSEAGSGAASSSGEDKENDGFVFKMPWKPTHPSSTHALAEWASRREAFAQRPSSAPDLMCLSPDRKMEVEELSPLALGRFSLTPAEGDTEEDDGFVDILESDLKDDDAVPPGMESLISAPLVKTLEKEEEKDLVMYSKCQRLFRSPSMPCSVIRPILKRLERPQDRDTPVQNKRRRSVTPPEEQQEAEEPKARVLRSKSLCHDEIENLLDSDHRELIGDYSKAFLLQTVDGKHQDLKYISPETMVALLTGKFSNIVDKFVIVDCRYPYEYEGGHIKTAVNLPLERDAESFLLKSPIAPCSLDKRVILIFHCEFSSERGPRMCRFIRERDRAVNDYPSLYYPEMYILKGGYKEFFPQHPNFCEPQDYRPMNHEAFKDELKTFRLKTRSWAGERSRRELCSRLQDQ
assay.endpoint: IC50 (µM)

Solved entries (count: 3):
CCCCCCCCCCCCCCCC(NCc1cccc(OC)c1)=C1C(=O)OC(CO)C1=O (mixture of isomers): 8.31
CCCCCCCCCCCCCCC/C(NCc1ccccc1)=C1/C(=O)OC(CO)C1=O (stereo unspecified): 8.42
CCCCCCCCCCCCCCCC(NCc1ccccc1OC)=C1C(=O)OC(CO)C1=O (mixture of isomers): 12.1

[1] CCCCCCCCCCCCCCCC(NCc1ccccc1Cl)=C1C(=O)OC(CO)C1=O (mixture of isomers)
[2] CCCCCCCCCCCCCCCC(NCc1ccccc1C)=C1C(=O)OC(CO)C1=O (mixture of isomers)
# query: argmin of IC50 over 1 and 2 // caller expects the label of the chosen entry
2
(2: 8.61 µM, 1: 13.5 µM)

* * *

Biological target: M-phase inducer phosphatase 1 (Homo sapiens)
Sequence (P30304 whole entry): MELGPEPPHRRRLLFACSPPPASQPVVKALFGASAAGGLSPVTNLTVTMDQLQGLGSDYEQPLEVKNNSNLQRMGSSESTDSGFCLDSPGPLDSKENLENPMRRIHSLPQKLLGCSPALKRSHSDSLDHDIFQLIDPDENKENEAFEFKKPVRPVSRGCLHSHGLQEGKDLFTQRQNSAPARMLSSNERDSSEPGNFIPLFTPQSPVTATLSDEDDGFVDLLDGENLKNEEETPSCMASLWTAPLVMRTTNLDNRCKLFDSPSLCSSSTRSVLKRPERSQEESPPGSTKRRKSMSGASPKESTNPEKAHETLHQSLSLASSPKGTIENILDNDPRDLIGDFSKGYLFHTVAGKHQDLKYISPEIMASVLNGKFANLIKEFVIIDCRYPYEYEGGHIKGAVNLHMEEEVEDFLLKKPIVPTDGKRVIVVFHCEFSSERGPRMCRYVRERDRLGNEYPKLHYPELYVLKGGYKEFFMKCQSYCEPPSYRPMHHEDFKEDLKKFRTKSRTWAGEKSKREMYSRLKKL
Test: Inhibition of CDC25A
pIC50: −log10 of the molar value.
assay.endpoint: pIC50

CCCCCCCCCCCCCCCC(NCc1ccccc1Cl)=C1C(=O)OC(CO)C1=O (mixture of isomers): 4.91
CCCCCCCCCCCCCCCC(NCc1ccc(N(C)C)cc1)=C1C(=O)OC(CO)C1=O (mixture of isomers): 5.06
CCCCCCCCCCCCCCCC(NCc1cccc(OC)c1)=C1C(=O)OC(CO)C1=O (mixture of isomers): 4.99
